tested on: human hepatocytes; test: Metabolic stability in human hepatocytes; details: 1 μM test compound, 50% human serum, percentage of liver blood flow
MEASUREMENT TYPE: Hepatic clearance - QH[%] in human hepatocytes (%)

Observe how each entry below is paired with its result.
| COMPOUND | MEASUREMENT |
| --- | --- |
| C[C@H](O)CNC1CCN(c2cc(C(=O)N[C@H](C)c3cccc(C(F)(F)F)c3F)cn3ncnc23)CC1 [Example E40] | 22 |
| C[C@@H](NC(=O)c1cc(N2CCC(N3C[C@H](O)C4(CC4)C3)CC2)c2ncnn2c1)c1cccc(C(F)(F)F)c1F [Example E28] | 23 |
| C[C@@H](NC(=O)c1cc(N2CCC(N3C[C@@H](O)[C@@H]3C)CC2)c2ncnn2c1)c1cccc(C(F)(F)F)c1F [Example E32] | 23 |
| CO[C@H]1CCN(C2CCN(c3cc(C(=O)N[C@H](C)c4cccc(C(F)F)c4F)cn4ncnc34)CC2)C1 [Example E10] | 29 |

(a) C[C@@H](NC(=O)c1cc(N2CCC(N3CC4CC4(CO)C3)CC2)c2ncnn2c1)c1cccc(C(F)F)c1F (single isomer, unassigned) [Example cis-E21b]
(b) C[C@@H](NC(=O)c1cc(N2CCC(N3CCC[C@H]3CO)CC2)c2ncnn2c1)c1cccc(C(C)(F)F)c1F [Example E72]
(c) C[C@@H](NC(=O)c1cc(N2CCC3CCNC3C2)c2ncnn2c1)c1cccc(C(F)(F)F)c1F (single isomer, unassigned) [Example cis-E52a]
// query Please order the records by their reported Hepatic clearance - QH[%] in human hepatocytes, lowest number first. Provide the labels, sequenced as the question asks.
// result c, b, a

* * *

target: SOS1 and KRAS G12D (Homo sapiens (Human), UniProt Q07889); assay: KRAS::SOS1 AlphaScreen binding assay (KRAS G12D); conditions: average of at least two measurements
Sequence (Q07889 564-1049, stated change not applied): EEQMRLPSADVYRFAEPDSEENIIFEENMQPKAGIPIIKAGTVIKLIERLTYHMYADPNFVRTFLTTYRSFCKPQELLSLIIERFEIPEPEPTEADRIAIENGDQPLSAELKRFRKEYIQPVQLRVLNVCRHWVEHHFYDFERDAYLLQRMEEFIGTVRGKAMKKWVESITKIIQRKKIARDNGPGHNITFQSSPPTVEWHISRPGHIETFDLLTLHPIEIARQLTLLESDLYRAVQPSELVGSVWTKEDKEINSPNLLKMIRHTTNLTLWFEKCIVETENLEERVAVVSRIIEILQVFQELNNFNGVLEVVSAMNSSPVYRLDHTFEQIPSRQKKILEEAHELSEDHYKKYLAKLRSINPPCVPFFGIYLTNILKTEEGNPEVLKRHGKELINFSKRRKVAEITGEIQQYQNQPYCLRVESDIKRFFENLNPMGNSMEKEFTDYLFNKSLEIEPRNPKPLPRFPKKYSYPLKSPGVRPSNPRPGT
MEASUREMENT TYPE: IC50 (nM)

| COMPOUND | ASSAY TARGET | IC50 / nM |
| --- | --- | --- |
| C[C@@H](NC(=O)c1cc(N2CCC(N3CCC[C@H]3CO)CC2)c2ncnn2c1)c1cccc(C(F)(F)F)c1F | SOS1 and KRAS G12D (Homo sapiens (Human), UniProt Q07889) | 28 |
| C[C@@H](NC(=O)c1cc(N2CCC(N3CCC[C@@H]3CO)CC2)c2ncnn2c1)c1cccc(C(F)F)c1F [Example E1] | SOS1 and KRAS G12D (Homo sapiens (Human), UniProt Q07889) | 30 |
| C[C@@H](NC(=O)c1cc(N2CCC3(CCCN3C)CC2)c2ncnn2c1)c1cccc(C(C)(F)F)c1F | SOS1 and KRAS G12D (Homo sapiens (Human), UniProt Q07889) | 21 |
| C[C@@H](NC(=O)c1cc(C2=CCC(N3CCC[C@H](O)C3)CC2)c2ncnn2c1)c1cccc(C(F)F)c1F (some centres unmarked) | SOS1 and KRAS G12D (Homo sapiens (Human), UniProt Q07889) | 27 |
| C[C@@H]1C[C@H](O)CN1C1CCN(c2cc(C(=O)N[C@H](C)c3cccc(C(F)(F)F)c3F)cn3ncnc23)CC1 | SOS1 and KRAS G12D (Homo sapiens (Human), UniProt Q07889) | 46 |
